The measurements presented in this section are drawn from a melting point compilation (Tetko et al.; mined from patent text by program, amines drawn as free bases though some values may be those of a salt).

molecules and their reported melting point

Example molecules with recorded melting point:
>>> test_result("O=C(O)CCCCc1cc2ccccc2n1-c1cccnc1")
"143 to 144 °C"
>>> test_result("CCOCc1nc2c(N)nc3ccccc3c2n1Cc1cc(-c2ccc(F)cc2)no1")
"203 to 204 °C"
>>> test_result("COc1cccc(-n2c3c(c(=O)c4cccnc42)CCO3)c1")
"194 to 196 °C"
>>> test_result("Cc1cc(-c2c3ccccc3c(Br)c3sc(C)c(C)c23)cc(C)c1OS(=O)(=O)c1ccc(C(=O)O)c(O)c1")
"> 225 °C"
>>> test_result("COc1ccc(CNC(=O)c2cn3c(=O)n(Cc4ccccc4)c(=O)c(C)c3s2)cc1")
"160 to 162 °C"
>>> test_result("O=C(O)C1(CCCCCCCCCCCCC2(C(=O)NC3CC3)CC2)CC1")
"95.3 to 97.7 °C"

Shift focus to the following entry.
Query string: State the recorded melting point for this entry: `COc1ccc(-c2nc(C#N)oc2-c2ccc(OC)cc2)cc1`
Result string: 110 to 112 °C

###

Reported Endpoint: melting point

Below, 3 compounds whose answers are already recorded.
>>> test_result("CCOC(CI)=Nc1ccc(Cl)cc1C(=O)c1ccccc1")
"67 to 68 °C"
>>> test_result("COC(=O)CCc1cc2cc(Cl)ccc2n1S(=O)(=O)c1ccc2c(c1)OCO2")
"122 to 129 °C"
>>> test_result("COc1ccc(SCCCCN2C(=O)c3ccccc3C2=O)cc1")
"61 to 62 °C"

Query string: I am curious: what melting point value has been reported for `Cc1cc2ncc(Cl)nc2cc1C` ?
Result string: 103 °C

Query string: Then what about the compound COc1ccc(C(O)CCSc2ccc(S(N)(=O)=O)s2)cc1 (stereo not given) ?
Result string: 111 to 112 °C

Query string: Do the same for `CCOC(=O)C(C)(C)n1c(=O)[nH]c2cc(F)c(F)cc2c1=O` please
Result string: 166 to 168 °C

Query string: // query: `O=C(Cn1c(=O)n(S(=O)(=O)c2ccc(Cl)cc2)c(=O)c2ccc(Cl)cc21)Nc1ccccc1`
Result string: 217 to 218 °C

Query string: How about CC(C)CCCC(C)C1CCC2C3CC=C4CC(N=[N+]=[N-])CCC4(C)C3CCC12C (stereo not given) ?
Result string: 84 to 86 °C

Query string: Repeat for the following compound: `Cc1cc(NC(=O)Nc2ccc(N(CCCl)CCCl)cc2)cc(Nc2c3ccccc3nc3ccccc23)c1`
Result string: 280 to 285 °C

Query string: Another compound: `CNC(=O)NCc1cccc(-c2csc(N=C(N)N)n2)n1`
Result string: 205 to 206 °C

###

Reported Endpoint: melting point (°C)

A. CC(C)Oc1nccc2c1C(c1ccccc1C(F)(F)F)c1c(cc[nH]c1=O)N2 (stereo unspecified)
B. CCCCCCCC(=O)N(CCc1ccc(CCO)cc1)S(=O)(=O)c1ccc(Cl)cc1
Query string: Endpoint returns whichever of A and B has the numerically higher melting point. // caller expects the label of the chosen entry
Result string: A
(A: 315 °C, B: 55 °C)

###

// reported melting point for each item listed

Example results:
>>> test_result("COc1cc2nc(Cl)nc(Nc3ccc4[nH]ncc4c3)c2cc1OC")
"279 to 284 °C"
>>> test_result("NC(=O)CC[C@H](NC(=O)c1ccc(OCc2ccccc2)cc1OCc1ccccc1)C(=O)N1CCN(Cc2ccccc2)CC1")
"133 to 135 °C"

Query string: Entry `COC(=O)c1ccc(O)c(N)c1C(=O)OC` : reported melting point = ?
Result string: 112 to 113 °C

Query string: Let us now turn to `O=C(Nc1cccc(C(F)(F)F)c1)c1ccccc1SSc1ccccc1C(=O)Nc1cccc(C(F)(F)F)c1`
Result string: 167 to 168 °C

Query string: Consider next the compound CCCSc1ncnc2c1ncn2C1CC(F)C(CO)O1 (centres undefined) in the same way.
Result string: 85 to 86 °C

Query string: And the next one, `CCC(=O)c1cc([C@]2(c3cccc(-c4cccnc4F)c3)N=C(N)N(C)C2=O)cn1CC` ?
Result string: 94 to 97 °C

Query string: Next up: `COc1ccc(C2=NN(c3ccc(CC(=O)N4CCOCC4)cc3)C(=O)C(C)(C)C2)cc1OC`
Result string: 165 to 167 °C

Query string: Again, but for `CCOC(=O)c1cnc2nc(C=CC(=O)O)c(OCC)cc2c1O`
Result string: > 280 °C

###

Reported Endpoint: melting point (°C)

>>> test_result("CS(=O)(=O)Nc1cc(N2C(=O)C3=C(CCCC3)C2=O)c(F)cc1C#N")
113
>>> test_result("NCCN1CCC(=C2c3ccccc3C=Cc3ccccc32)CC1")
102
>>> test_result("O=C1CCC2(c3ccc(-c4ccc(OC(F)(F)F)cc4)cc3)OCC(c3ccccc3)N12 (stereo not given)")
104

###

The following compounds are shown together with reported melting point values.

Solved cases below.
>>> test_result("OCCc1c[nH]c(-c2ccccc2OCc2ccccc2)n1")
"131 to 133 °C"
>>> test_result("CC(C)C(C#N)NC(=O)c1snc(Cl)c1Cl (stereo not given)")
"120 to 121 °C"
>>> test_result("COC(=O)c1ccc2c(c1)COC(C(Cl)(Cl)Cl)N2 (stereo not given)")
"116 to 117 °C"

Query string: Give its melting point value. Item: O=C(O)C1=Cc2ccc3ccccc3c2OC1C(F)(F)F (stereo not given)
Result string: 246 to 249 °C

Query string: Item: `O=C(O)/C=C/C=C(c1ccc(-c2ccccc2)cc1)c1ccc(-c2ccccc2)cc1`
Result string: 253 to 255 °C

Query string: Ok, now `CCOC(=O)c1ncoc1-c1cc(OC)c(OC)c([N+](=O)[O-])c1`
Result string: 109 to 110 °C

Query string: Entry to check: `Fc1ccc(-n2c(CCl)csc2=S)c(F)c1F`
Result string: 127 to 130 °C

Query string: Then this compound: `C#CCON=C(C(C)=NOCc1ccccc1C(=COC)C(=O)OC)c1ccc(F)cc1`
Result string: 91 to 93 °C

Query string: Consider next the compound `COc1cc(-c2ccc(N)cc2C(=O)NCCNC(=O)c2cc(N)ccc2-c2cc(OC)c(OC)c(OC)c2)cc(OC)c1OC` in the same way.
Result string: > 250 °C

Query string: Can you check `NS(=O)(=O)c1ccc(-c2cccc(-c3nc(-c4ccc(C(F)(F)F)nc4)cc(C(F)F)n3)c2)s1` next?
Result string: 246 °C

Query string: What about `Cc1ccnc(Cl)c1C(N)=O` ?
Result string: 168 to 170 °C

Query string: // same read-out, input: CC(=O)OC1CCC2(C)C(CCC3C4CCC(C(C)=O)C4(C)CC4OC432)C1 (stereo not given)
Result string: 133 to 136 °C

Query string: Now this one: `Oc1cc(Cl)c2c(C34CC5CC(CC(C5)C3)C4)noc2c1`
Result string: 215 °C

Query string: Quick one: `CCOC(=O)C(C#N)=CNNCC(=Cc1ccccc1)c1ccccc1`
Result string: 129 to 133 °C

Query string: Next compound up: `O=S(=O)(CCc1ccc(O)cc1)CC1CCC1`
Result string: 112 °C

Query string: And O=C1c2ccccc2C(=O)N1CC(=O)N1c2ccccc2N(Cc2ccc([N+](=O)[O-])cc2)C(=O)[C@H]2CCC[C@H]21 (relative stereo) ?
Result string: 224 to 225 °C

###

Each entry below carries its recorded melting point.

Solved cases below.
>>> test_result("CC1(C(=O)N2CCC(n3c(=O)[nH]c4ccccc43)CC2)OCc2ccccc2-n2cccc21 (stereo not given)")
"208 to 210 °C"
>>> test_result("Cc1nc(Nc2ccc(Cl)cc2)sc1-c1nc2ccccc2c(=O)n1-c1ccc(Cl)cc1")
"267 to 268 °C"
>>> test_result("CCCCOCc1cc2c3ccccc3[nH]c(=O)n2n1")
"170 to 172 °C"
>>> test_result("O=C(O)C(CC1CCCCC1)NS(=O)(=O)c1ccc(Cl)cc1 (racemic)")
"127 to 129 °C"
>>> test_result("Cc1ccc([C@@H]2CO[C@@H](c3ccc(C)cc3)CO2)cc1")
"200 °C"

Query string: Query: melting point; subject: `COc1ccccc1Oc1cc2c(=O)c(NC=O)coc2cc1NS(C)(=O)=O`
Result string: 226 to 227 °C

Query string: What about CS(=O)(=O)N1CC(CN2CCCC2)Cc2ccccc21 (stereo not given) ?
Result string: 72 to 73 °C

###

The following molecules are shown together with reported melting point values.

>>> test_result("CCC(CC)n1cc(C)nc(N2CCc3cc(Cl)cc(Cl)c32)c1=O")
"137 to 139 °C"
>>> test_result("CCOC(=O)c1cn(CCC(C)C)c2nn(C)cc2c1=O")
"105 to 106 °C"
>>> test_result("COC(=O)c1ccc2c(c1)C(=O)C(C=C1C=CC=C(C(=O)O)C1)O2 (stereo not given)")
"280 °C"
>>> test_result("Cc1c(Cl)ccc2[nH]c(CO)cc12")
"108 °C"
>>> test_result("CN(C)C=Nc1ncc2cc(-c3c(Cl)cccc3Cl)c(N=CN(C)C)nc2n1")
"269 to 272 °C"

Query string: # lookup: melting point of `CC(C)C[C@H](NS(=O)(=O)c1cccnc1)C(=O)N[C@@H](C(C)C)[C@@H](O)c1c(-c2ccccc2)c1=O`
Result string: 110 to 112 °C

Query string: Further, for `CCOC(=O)c1sc(-c2ccc3c(=O)n(CC(C)C)c(CNC(=O)OCC4c5ccccc5-c5ccccc54)c(-c4ccccc4)c3c2)nc1C` ?
Result string: 157 to 158 °C

Query string: For `Nc1cc(C(O)=S)cc(SCc2ccccc2)c1-c1ccccc1` then?
Result string: 170 to 172 °C

Query string: Also, `COC(=O)C1=Cc2cc(-c3ccc(N4CCOCC4)cc3)ccc2N(C=O)CC1` please.
Result string: 178 to 181 °C

Query string: Moving on to COc1ccc(C2OC(O[Si](C)(C)C)(C(F)(F)F)C(C)(C)N2C(=O)COc2ccccc2)cc1 (stereo not given)
Result string: 89 to 92 °C

Query string: Field entry: CC(C)(C)OC(=O)N1CCC(Oc2ccc(C3=NNC(=O)CC3c3ccccn3)cc2)CC1 (stereo not given)
Result string: 213 to 214 °C

Query string: Also check `NS(=O)(=O)c1ccc(-c2cnn(-c3ccc(F)c(F)c3)c(=O)c2Oc2ccc(F)cc2)cc1F`
Result string: 224 to 226 °C

Query string: Okay, and `CC#CCOc1ccc(S(=O)(=O)C2(C(=O)O)CCN(Cc3ccc(F)cc3)CC2)cc1` ?
Result string: 106 °C

Query string: One more molecule: `N#Cc1c[nH]c(Cl)c1-c1cccc(F)c1`
Result string: 158 to 161 °C

Query string: Repeat for the following molecule: CC(C)NCC(O)c1ccc(N)c(C#N)c1 (stereo not given)
Result string: 159 to 161 °C

Query string: Now the molecule CC1=C(C)C(N)(Cc2ccccc2)C(C)C2=C1OCC2c1ccc(C)cc1 (stereo not given)
Result string: 99 to 100 °C

Query string: Try `COc1ncccc1-c1cccn2nc(Cl)nc12` next.
Result string: 218 to 219 °C

Query string: Queued: `Cc1cc(COc2ccc3nc(NC(=O)NCCN4CCOCC4)sc3c2)n(C)n1`
Result string: 160 °C

Query string: Try this molecule too: `CCCCc1nc2c(N)nc3ccc(OCc4ccccc4)cc3c2n1CCCCNC(=O)N1CCOCC1`
Result string: 177 to 179 °C

Query string: Quick one: `COC(=O)CCCCCCCC(=O)CCC(=O)COC(C)=O`
Result string: 64 to 65 °C

Query string: Request: `Cn1nc(-c2cccc(N3Cc4cc(C(C)(C)C)ccc4C3=O)c2CO)cc(Nc2ccn(C3CNC3)n2)c1=O`
Result string: 202 to 204 °C

Query string: Another molecule to check: `Cc1ccccc1OS(=O)(=O)c1cc(S(N)(=O)=O)c(Oc2ccccc2)cc1Cl`
Result string: 157 to 159 °C

Query string: Same thing, different molecule: `CCOC(=O)C=Cc1cc2c(cn1)[nH]c1ccccc12`
Result string: 132 to 134 °C

Query string: Now consider `Oc1nn(-c2ccc(Cl)c(Cl)c2)cc1-c1ccccc1` and answer again.
Result string: 244 to 245 °C

Query string: Follow-up entry: Cc1ccc2c(n1)Oc1ccc(C(C)C(=O)OCCC(N)=O)cc1C2 (stereo not given)
Result string: 143 to 145 °C
